TARGET_DESC: Recombinant human FAP (Homo sapiens)
Construct: purchased R&D systems 3715-SE
TEST_SUMMARY: FRET-based FAP protease activity assay
Format: biochemical
CONDITIONS: recombinant human FAP, FRET-peptide substrate, 37° C.; read-out: pIC50 Category (Activity) (converted)
*1 amine or outer side, *2 acyl side, *3 side chain or, on linkers, in order; H or OH if unused. Where a SMILES comes first, the peptide text is derived from it. Bridges are numbered along the chain shown (N, C = ends). [ ]: non-standard residue; d: D form. The star is where a group is joined. X4 = O=C(O)CN1CCN(CC(=O)O)CCN(CC(=O)NCCCOCCOCCOCCCN*)CCN(CC(=O)O)CC1; Suc = O=C(CCC(=O)[*:2])[*:1]; Nle = CCCC[C@H](N)C(=O)O
READOUT: IC50

Prompt: Need IC50, item CCCC[C@H](NC(=O)CCC(=O)NCCCOCCOCCOCCCNC(=O)CN1CCN(CC(=O)O)CCN(CC(=O)O)CCN(CC(=O)O)CC1)C(=O)N[C@H]1CSSC[C@@H](C(=O)N[C@@H](CC(=O)O)C(N)=O)NC(=O)[C@H](Cc2ccccc2)NC(=O)[C@H](CCC(N)=O)NC(=O)[C@H]([C@@H](C)O)NC(=O)[C@@H]2CCCN2C(=O)[C@@H]2CCCN2C1=O [Compound 1008] ({X4-Suc}-[Nle]CPPTQFCD-NH2; disulfide 2-8)
Response: < 100 nM

---

TARGET_DESC: Recombinant human FAP (Homo sapiens, UniProt Q12884)
Construct: purchased R&D systems 3715-SE
Sequence (Q12884 26-760 limits assumed): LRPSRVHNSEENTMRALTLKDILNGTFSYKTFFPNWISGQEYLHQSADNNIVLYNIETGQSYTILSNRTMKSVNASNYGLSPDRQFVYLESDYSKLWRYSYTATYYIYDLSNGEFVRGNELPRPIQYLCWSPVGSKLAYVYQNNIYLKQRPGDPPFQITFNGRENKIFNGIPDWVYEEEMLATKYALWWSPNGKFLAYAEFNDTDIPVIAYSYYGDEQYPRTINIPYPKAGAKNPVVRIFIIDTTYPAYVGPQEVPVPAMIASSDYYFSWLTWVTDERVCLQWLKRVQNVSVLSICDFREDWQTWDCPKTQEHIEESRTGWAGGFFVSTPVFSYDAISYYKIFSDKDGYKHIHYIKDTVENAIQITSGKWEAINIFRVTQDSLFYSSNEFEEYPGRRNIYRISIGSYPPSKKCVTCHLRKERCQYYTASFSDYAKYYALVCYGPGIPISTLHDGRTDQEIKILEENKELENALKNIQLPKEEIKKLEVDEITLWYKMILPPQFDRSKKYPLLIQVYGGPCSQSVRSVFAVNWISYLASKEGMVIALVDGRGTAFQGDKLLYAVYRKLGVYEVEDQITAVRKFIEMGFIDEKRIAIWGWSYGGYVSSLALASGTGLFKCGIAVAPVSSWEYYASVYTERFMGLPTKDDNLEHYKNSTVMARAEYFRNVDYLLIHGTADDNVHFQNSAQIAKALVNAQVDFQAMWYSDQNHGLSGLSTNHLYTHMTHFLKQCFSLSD
TEST_SUMMARY: FRET-based FAP protease activity assay
Format: biochemical
CONDITIONS: recombinant human FAP, FRET-peptide substrate, 37° C.; read-out: pIC50 Category (Activity) (converted)
*1 amine or outer side, *2 acyl side, *3 side chain or, on linkers, in order; H or OH if unused. Where a SMILES comes first, the peptide text is derived from it. Bridges are numbered along the chain shown (N, C = ends). [ ]: non-standard residue; d: D form. The star is where a group is joined. ξ: configuration not given here. X4 = O=C(O)CN1CCN(CC(=O)O)CCN(CC(=O)NCCCOCCOCCOCCCN*)CCN(CC(=O)O)CC1; X1 = NC(=O)CC[C@H](N[*:1])C(=O)C[C@@H](Cc1ccccc1)C(=O)[*:2]; DOTA = O=C(O)CN1CCN(CC(=O)O)CCN(CC(=O)*)CCN(CC(=O)O)CC1; Maleimide(3,4-diyl) = O=C1NC(=O)C([*:2])=C1[*:1]; X9 = O=C(C1CCC[C@H]1C(=O)[*:2])[C@@H]1CCCN1[*:1]; X8 = NCCNCC(CNCCN)C(=O)NCCCOCCOCCOCCCN*; X7 = CN1C(=O)C([*:1])=C([*:2])C1=O; ξThr(3R) = C[C@@H](O)C(N)C(=O)O; Suc = O=C(CCC(=O)[*:2])[*:1]; β3hK = NCCCC[C@H](N)CC(=O)O; 4Amb = NCc1ccc(C(=O)O)cc1; Nle = CCCC[C@H](N)C(=O)O; Hexanoyl = CCCCCC(=O)*; CO = O=C([*:1])[*:2]; βAla = NCCC(=O)O; NHBu = CCCCN*
READOUT: IC50

Prompt: Need IC50, item CCCC[C@H](NC(=O)CCC(=O)NCCCOCCOCCOCCCNC(=O)CN1CCN(CC(=O)O)CCN(CC(=O)O)CCN(CC(=O)O)CC1)C(=O)N[C@H]1CSC2=C(SC[C@@H](C(=O)N[C@@H](CC(=O)O)C(=O)NCc3ccc(C(=O)N[C@@H](CCCNC(=N)N)C(N)=O)cc3)NC(=O)[C@H](Cc3ccccc3)CC(=O)[C@H](CCC(N)=O)NC(=O)[C@H]([C@@H](C)O)NC(=O)[C@@H]3CCCN3C(=O)[C@@H]3CCCN3C1=O)C(=O)NC2=O [Compound 2006] ({X4-Suc}-[Nle]CPPT[X1]CD[4Amb]R-NH2; linker 2-7 via Maleimide(3,4-diyl))
Response: < 100 nM

Prompt: Need IC50, item CCCC[C@H](NC(=O)CCC(=O)NCCCOCCOCCOCCCNC(=O)CN1CCN(CC(=O)O)CCN(CC(=O)O)CCN(CC(=O)O)CC1)C(=O)N[C@H]1CSSC[C@@H](C(=O)N[C@@H](CC(=O)O)C(=O)N[C@@H](Cc2c[nH]cn2)C(=O)N[C@@H](Cc2ccccc2)C(=O)N[C@@H](CCCNC(=N)N)C(=O)N[C@@H](CC(=O)O)C(N)=O)NC(=O)[C@H](Cc2ccccc2)NC(=O)[C@H](CCC(=O)O)NC(=O)[C@H]([C@@H](C)O)NC(=O)[C@@H]2CCCN2C(=O)[C@@H]2CCCN2C1=O [Compound 1006] ({X4-Suc}-[Nle]CPPTEFCDHFRD-NH2; disulfide 2-8)
Response: < 100 nM

Prompt: Need IC50, item CCCC[C@H](NC(=O)CCC(=O)NCCCOCCOCCOCCCNC(=O)CN1CCN(CC(=O)O)CCN(CC(=O)O)CCN(CC(=O)O)CC1)C(=O)N[C@H]1CSC2=C(SC[C@@H](C(=O)N[C@@H](CC(=O)O)C(N)=O)NC(=O)[C@H](Cc3ccccc3)NC(=O)[C@H](CCC(N)=O)NC(=O)[C@H]([C@@H](C)O)NC(=O)[C@@H]3CCCN3C(=O)[C@@H]3CCCN3C1=O)C(=O)N(C)C2=O [Compound 2016] ({X4-Suc}-[Nle]CPPTQFCD-NH2; linker 2-8 via X7)
Response: < 100 nM

Prompt: Need IC50, item CCCCNC(=O)N[C@H]1CSC2=C(SC[C@@H](C(=O)N[C@@H](CC(=O)O)C(=O)N[C@@H](CCCCNC(=O)CN3CCN(CC(=O)O)CCN(CC(=O)O)CCN(CC(=O)O)CC3)C(N)=O)NC(=O)[C@H](Cc3ccccc3)NC(=O)[C@H](CCC(N)=O)NC(=O)C([C@@H](C)O)NC(=O)[C@@H]3CCCN3C(=O)[C@@H]3CCCN3C1=O)C(=O)N(C)C2=O (stereo partly drawn) [Compound 2015] ({NHBu-CO}-CPP[ξThr(3R)]QFCDK(DOTA)-NH2; linker 1-7 via X7)
Response: < 100 nM

Prompt: Need IC50, item CCCC[C@H](NC(=O)CCC(=O)NCCCOCCOCCOCCCNC(=O)C(CNCCN)CNCCN)C(=O)N[C@H]1CSSC[C@@H](C(=O)NCCC(=O)O)NC(=O)[C@H](Cc2ccccc2)NC(=O)[C@H](CCC(N)=O)NC(=O)[C@H]([C@@H](C)O)NC(=O)[C@@H]2CCCC2C(=O)[C@@H]2CCCN2C1=O (stereo partly drawn) [Compound 1019] ({X8-Suc}-[Nle]C[X9]TQFC[βAla]-OH; disulfide 2-7)
Response: < 100 nM

Prompt: Need IC50, item `CCCCCC(=O)N[C@H]1CSSC[C@@H](C(=O)N[C@@H](CCCCNC(=O)CN2CCN(CC(=O)O)CCN(CC(=O)O)CCN(CC(=O)O)CC2)CC(=O)O)NC(=O)[C@H](Cc2ccccc2)NC(=O)[C@H](CCC(N)=O)NC(=O)[C@H]([C@@H](C)O)NC(=O)[C@@H]2CCCN2C(=O)[C@@H]2CCCN2C1=O`
Response: < 100 nM

Prompt: Need IC50, item `CCCC[C@H](NC(=O)CCC(=O)NCCCOCCOCCOCCCNC(=O)CN1CCN(CC(=O)O)CCN(CC(=O)O)CCN(CC(=O)O)CC1)C(=O)N[C@H]1CSC2=C(SC[C@@H](C(=O)NCCC(=O)O)NC(=O)[C@H](Cc3ccccc3)CC(=O)[C@H](CCC(N)=O)NC(=O)[C@H]([C@@H](C)O)NC(=O)[C@@H]3CCCN3C(=O)[C@@H]3CCCN3C1=O)C(=O)NC2=O`
Response: < 100 nM

Prompt: Need IC50, item CCCCCC(=O)N[C@H]1CSSC[C@@H](C(=O)N[C@@H](CCCCNC(=O)CN2CCN(CC(=O)O)CCN(CC(=O)O)CCN(CC(=O)O)CC2)CC(=O)O)NC(=O)[C@H](Cc2ccccc2)NC(=O)[C@H](CCC(=O)O)NC(=O)[C@H]([C@@H](C)O)NC(=O)[C@@H]2CCCN2C(=O)[C@@H]2CCCN2C1=O [Compound 1012] (Hexanoyl-CPPTEFC[β3hK](DOTA)-OH; disulfide 1-7)
Response: < 100 nM

Prompt: Need IC50, item CCCCCC(=O)N[C@H]1CSC2=C(SC[C@@H](C(=O)N[C@@H](CC(=O)O)C(N)=O)NC(=O)[C@H](Cc3ccccc3)NC(=O)[C@H](CCC(N)=O)NC(=O)[C@H]([C@@H](C)O)NC(=O)[C@@H]3CCCN3C(=O)[C@@H]3CCCN3C1=O)C(=O)NC2=O [Compound 2001] (HELM PEPTIDE1{[CCCCCC(=O)[*:2]].C.P.P.T.Q.F.C.D.[am]}|CHEM1{[O=C1NC(=O)C([*:2])=C1[*:1]]}$PEPTIDE1,CHEM1,2:R3-1:R1|PEPTIDE1,CHEM1,8:R3-1:R2$$$V2.0)
Response: < 100 nM

Just for reference, patent US20240115745A1 is where these values come from.
